- assayNotes: Concentration required to decrease cell growth by 50% in methotrexate-resistant CCRF-CEM human leukemia subline (R30dm)
- Type: functional, cell-based
EC50 reference
A number alone suffices; assume nM.

| molecule | readoutUnit | reportedMeasurement |
| --- | --- | --- |
| CN(Cc1cnc2nc(N)nc(N)c2n1)c1ccc(C(=O)N[C@@H](CCC(=O)O)C(=O)O)cc1 [METHOTREXATE] | nM | 16 |

Would you kindly look at the next entry?
If you can, please state the reported EC50 value of "Nc1nc(N)c2cc3c(nc2n1)CCN(Cc1ccc(C(=O)N[C@@H](CCC(=O)O)C(=O)O)cc1)C3" .
1900

---

IC50 reference
- subjectOfTest: Dihydrofolate reductase (Pneumocystis carinii, UniProt P16184)
- Sequence (P16184 whole entry): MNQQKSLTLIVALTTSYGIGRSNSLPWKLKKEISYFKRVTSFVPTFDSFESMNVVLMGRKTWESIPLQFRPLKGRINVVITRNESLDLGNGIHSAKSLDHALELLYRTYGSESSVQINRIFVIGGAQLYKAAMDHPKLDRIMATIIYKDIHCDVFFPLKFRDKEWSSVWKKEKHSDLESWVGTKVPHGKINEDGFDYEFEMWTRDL
A number alone suffices; assume µM.

Would you please look over these solved cases?
| structure | readoutUnit | IC50 |
| --- | --- | --- |
| Nc1nc(N)c2cc3c(nc2n1)CCN(Cc1ccc(Cl)c(Cl)c1)C3 | µM | 5 |
| Nc1nc(N)c2cc3c(nc2n1)CCN(Cc1ccccc1)C3 | µM | 16 |
| Nc1nc(N)c2cc3c(nc2n1)CCN(Cc1ccc(C(=O)N[C@@H](CCC(=O)O)C(=O)O)cc1)C3 | µM | 1.8 |

Would you kindly look at the next entry?
If you can, please state the reported IC50 value of "COc1cc(CN2CCc3nc4nc(N)nc(N)c4cc3C2)cc(OC)c1" .
14

---

- subjectOfTest: Bifunctional dihydrofolate reductase-thymidylate synthase (Toxoplasma gondii, UniProt Q07422)
- Sequence (Q07422 whole entry): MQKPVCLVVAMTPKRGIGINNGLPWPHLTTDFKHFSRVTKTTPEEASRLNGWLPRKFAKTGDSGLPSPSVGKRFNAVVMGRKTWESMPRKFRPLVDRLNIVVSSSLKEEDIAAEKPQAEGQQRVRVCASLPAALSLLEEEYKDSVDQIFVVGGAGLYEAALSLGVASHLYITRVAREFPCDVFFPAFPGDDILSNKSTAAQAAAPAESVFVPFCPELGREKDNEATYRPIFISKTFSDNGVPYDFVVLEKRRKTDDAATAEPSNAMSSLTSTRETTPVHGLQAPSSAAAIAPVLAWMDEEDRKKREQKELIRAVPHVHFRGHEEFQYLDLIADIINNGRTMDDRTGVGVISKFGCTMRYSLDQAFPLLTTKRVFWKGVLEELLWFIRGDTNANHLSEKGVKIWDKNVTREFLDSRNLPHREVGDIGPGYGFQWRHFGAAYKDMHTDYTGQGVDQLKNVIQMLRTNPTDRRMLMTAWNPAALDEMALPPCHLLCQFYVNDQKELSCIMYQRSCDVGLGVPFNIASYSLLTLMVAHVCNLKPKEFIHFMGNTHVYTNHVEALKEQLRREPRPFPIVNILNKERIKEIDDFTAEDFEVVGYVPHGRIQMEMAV
Lab note - cut at 5000 nM for IC50: Met if strictly below, Not met if not.

Solved entries:
| structure | discreteLabel |
| --- | --- |
| Nc1nc(N)c2cc3c(nc2n1)CCN(Cc1ccccc1)C3 | Met |
| Nc1nc(N)c2cc3c(nc2n1)CCN(Cc1ccc(Cl)cc1Cl)C3 | Met |
| COc1cc(CN2CCc3nc4nc(N)nc(N)c4cc3C2)cc(OC)c1 | Met |
| COc1ccc(CN2CCc3nc4nc(N)nc(N)c4cc3C2)cc1 | Met |

Find out if reported IC50 for "Nc1nc(N)c2cc3c(nc2n1)CCN(C(=O)OCc1ccccc1)C3" is less than 5000 nM
Not met

---

- subjectOfTest: Dihydrofolate reductase (Homo sapiens)
- Sequence (P00374 whole entry): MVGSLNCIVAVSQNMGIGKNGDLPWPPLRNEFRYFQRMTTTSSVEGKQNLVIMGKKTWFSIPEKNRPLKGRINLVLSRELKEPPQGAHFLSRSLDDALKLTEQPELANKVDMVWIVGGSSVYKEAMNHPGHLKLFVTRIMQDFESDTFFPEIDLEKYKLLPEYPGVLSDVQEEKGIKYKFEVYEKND
assayEndpoint: IC50 (µM)
A number alone suffices; assume µM.

| structure | assayEndpoint | reportedMeasurement |
| --- | --- | --- |
| Nc1nc(N)c2cc3c(nc2n1)CCN(Cc1ccc(Cl)cc1Cl)C3 | IC50 | 1.3 |
| Nc1nc(N)c2cc3c(nc2n1)CCN(Cc1ccc(C(=O)N[C@@H](CCC(=O)O)C(=O)O)cc1)C3 | IC50 | 5.4 |
| Nc1nc(N)c2cc3c(nc2n1)CCN(Cc1ccccc1)C3 | IC50 | 32 |

Would you kindly look at the next entry?
I'm curious: which IC50 was measured for "Nc1nc(N)c2cc3c(nc2n1)CCN(C(=O)OCc1ccccc1)C3" tested on Dihydrofolate reductase (Homo sapiens)?
30
